These entries and their values trace back to the supplement of paper PMC7695840.

Recorded normalized DsRed fluorescence values for a group of compounds are listed next.
Test system: Staphylococcus aureus MW2 (mecA+)
Assay: normalized DsRed fluorescence (growth of mecA+ strain) (fraction of control range); higher = more growth of mecA+ strain
Conditions: compound concentration: 150 uM; cefoxitin: subinhibitory; fluorescent label: DsRed
Just the number.

Example cases with answers are listed next.
Cc1cnc(C(=O)NCCc2ccc(S(=O)(=O)NC(=O)NC3CCCCC3)cc2)cn1: 0.734
C[C@@H]1O[C@@H](OC[C@H]2O[C@@H](Oc3c(-c4ccc(OCCO)c(OCCO)c4)oc4cc(OCCO)cc(O)c4c3=O)[C@H](O)[C@@H](O)[C@@H]2O)[C@H](O)[C@H](O)[C@H]1O: 0.471
Nc1ncnc2c1ncn2[C@@H]1O[C@H](CO)[C@@H](O)[C@@H]1O: 0.346
CCCNS(=O)(=O)Nc1ncnc(OCCOc2ncc(Br)cn2)c1-c1ccc(Br)cc1: 0.379

Please list normalized DsRed fluorescence recorded for the compound CN[C@@H]1[C@@H](O)[C@@H](O[C@@H]2[C@@H](O)[C@H](O[C@H]3OC(CN)=CC[C@H]3N)[C@@H](N)C[C@H]2N)OC[C@]1(C)O
0.916

Please list normalized DsRed fluorescence recorded for the compound CC(C)[C@H]1CC[C@H](C(=O)N[C@H](Cc2ccccc2)C(=O)O)CC1
0.513

Please list normalized DsRed fluorescence recorded for the compound OC(CCN1CCCC1)(c1ccccc1)C1CCCCC1 (stereo not drawn)
1.7

Please list normalized DsRed fluorescence recorded for the compound C[N+](C)(C)CCOC(N)=O
0.816

Please list normalized DsRed fluorescence recorded for the compound CN1C(CCl)Nc2cc(Cl)c(S(N)(=O)=O)cc2S1(=O)=O (stereo not drawn) [Methyclothiazide]
0.579

Please list normalized DsRed fluorescence recorded for the compound CCOc1ccc(Cc2cc([C@@H]3O[C@H](CO)[C@@H](O)[C@H](O)[C@H]3O)ccc2Cl)cc1
0.557

Please list normalized DsRed fluorescence recorded for the compound C[C@]12CC[C@@H]3c4ccc(O)cc4C[C@@H](CCCCCCCCC[S+]([O-])CCCC(F)(F)C(F)(F)F)[C@H]3[C@@H]1CC[C@@H]2O (stereo partly drawn)
0.667

Please list normalized DsRed fluorescence recorded for the compound O=C(O)C[C@H](O)C[C@H](O)/C=C/c1c(C2CC2)nc2ccccc2c1-c1ccc(F)cc1
0.559

Please list normalized DsRed fluorescence recorded for the compound CN[C@@H]1[C@H](O)[C@H](NC)[C@H]2O[C@@]3(O)C(=O)C[C@@H](C)O[C@H]3O[C@@H]2[C@H]1O
0.555

Please list normalized DsRed fluorescence recorded for the compound Cc1c(OCC(F)(F)F)ccnc1C[S@@+]([O-])c1nc2ccccc2[nH]1
0.452

Please list normalized DsRed fluorescence recorded for the compound COc1cc2ncnc(Nc3ccc(F)c(Cl)c3)c2cc1NC(=O)/C=C/CN1CCCCC1
0.557

Please list normalized DsRed fluorescence recorded for the compound CN1CCN(CC(=O)N2c3ccccc3C(=O)Nc3cccnc32)CC1
0.759

Please list normalized DsRed fluorescence recorded for the compound CCN(CC)C(=O)/C(C#N)=C/c1cc(O)c(O)c([N+](=O)[O-])c1
1.35

Please list normalized DsRed fluorescence recorded for the compound C[C@]12CCC3=C4CCC(=O)C=C4CC[C@H]3[C@@H]1CC[C@@]2(O)CC#N
0.746

Please list normalized DsRed fluorescence recorded for the compound COc1cc(C)c(/C=C/C(C)=C/C=C/C(C)=C/C(=O)O)c(C)c1C
0.289

Please list normalized DsRed fluorescence recorded for the compound CC(=O)CC(c1ccc([N+](=O)[O-])cc1)c1c(O)c2ccccc2oc1=O (stereo not drawn)
0.29

Please list normalized DsRed fluorescence recorded for the compound N#CC[C@H](C1CCCC1)n1cc(-c2ncnc3[nH]ccc23)cn1
0.956

Please list normalized DsRed fluorescence recorded for the compound NC(=O)c1cn(Cc2c(F)cccc2F)nn1 [Rufinamide (Banzel)]
0.955

Please list normalized DsRed fluorescence recorded for the compound CCCC(=O)OCOC(=O)C1=C(C)NC(C)=C(C(=O)OC)C1c1cccc(Cl)c1Cl (stereo not drawn)
0.595

Please list normalized DsRed fluorescence recorded for the compound Nc1nc2ccc(OC(F)(F)F)cc2s1
0.37

Please list normalized DsRed fluorescence recorded for the compound CN1Cc2c(N)cccc2C(c2ccccc2)C1 (stereo not drawn)
0.781

Please list normalized DsRed fluorescence recorded for the compound CN(C)CCCN1c2ccccc2Sc2ccccc21
1.06
